Measured values drawn from paper PMC12210912 for this set.

Procedure Summary: stability in human liver microsomes
Format: in vitro ADME
Conditions: both sexes, human liver microsomes, pH 7.4, 1 μM, HLM 0.5 mg/mL, 37°C, 1 h, mean of duplicates, read-out: HLM stability t1/2
Readout Kind: log10 of half-life at 1 µM (log10 of the value in h)
A difference of one corresponds to tenfold half-life at 1 µM; all values are log10 with half-life at 1 µM in h.

The examples below pair each entry with its known result.
Data request: Consider the molecule CCCN1CC2C3CCC(C(=O)NC(c4ccc(F)cc4)c4ccc(F)cc4)[C@@]3(C)CCC2[C@@]2(C)CCC(=O)C=C12 (some centres unmarked) [Compound 6] . State its measured log10 of half-life at 1 µM.
Data returned: 0.75

Data request: Indicate the recorded log10 of half-life at 1 µM value for this molecule: CCCN1CC2C3CCC(C(=O)Nc4cc(C(C)(C)C)ccc4C(C)(C)C)[C@@]3(C)CCC2[C@@]2(C)CCC(=O)C=C12 (some centres unmarked) [Compound 2]
Data returned: -0.52

Data request: Please report log10 of half-life at 1 µM for the following molecule: C[C@]12CCC3C(CN(CCCF)C4CC(=O)CC[C@]34C)C1CCC2C(=O)Nc1cc(C(F)(F)F)ccc1C(F)(F)F (some centres unmarked) [Compound 3]
Data returned: -0.12

Data request: Please report the measured log10 of half-life at 1 µM for C[C@]12CCC3C(CNC4=CC(=O)CC[C@@]43C)C1CCC2C(=O)NC(c1ccc(F)cc1)c1ccc(F)cc1 (some centres unmarked) [Compound 5]
Data returned: 0.87

# context switch: different molecule, same log10 of half-life at 1 µM
Data request: Supply recorded log10 of half-life at 1 µM for C[C@]12CCC3C(CN(CCC(F)(F)F)C4CC(=O)CC[C@]34C)C1CCC2C(=O)Nc1cc(C(F)(F)F)ccc1C(F)(F)F (some centres unmarked) [Compound 4] here.
Data returned: 0.02
